biological target: cFMS (Homo sapiens); construct: THP-1 cells (human acute monocytic leukemia cell line) were serum-starved for 4 hours; endogenous in cells; test: cFMS Cell-Based Assay (Example C); conditions: averaged IC50; phospho-cFMS in THP-1 cells stimulated with 250 ng/mL recombinant human MCSF; read-out: cFMS Cell ELISA IC50
Sequence (P07333 20-972): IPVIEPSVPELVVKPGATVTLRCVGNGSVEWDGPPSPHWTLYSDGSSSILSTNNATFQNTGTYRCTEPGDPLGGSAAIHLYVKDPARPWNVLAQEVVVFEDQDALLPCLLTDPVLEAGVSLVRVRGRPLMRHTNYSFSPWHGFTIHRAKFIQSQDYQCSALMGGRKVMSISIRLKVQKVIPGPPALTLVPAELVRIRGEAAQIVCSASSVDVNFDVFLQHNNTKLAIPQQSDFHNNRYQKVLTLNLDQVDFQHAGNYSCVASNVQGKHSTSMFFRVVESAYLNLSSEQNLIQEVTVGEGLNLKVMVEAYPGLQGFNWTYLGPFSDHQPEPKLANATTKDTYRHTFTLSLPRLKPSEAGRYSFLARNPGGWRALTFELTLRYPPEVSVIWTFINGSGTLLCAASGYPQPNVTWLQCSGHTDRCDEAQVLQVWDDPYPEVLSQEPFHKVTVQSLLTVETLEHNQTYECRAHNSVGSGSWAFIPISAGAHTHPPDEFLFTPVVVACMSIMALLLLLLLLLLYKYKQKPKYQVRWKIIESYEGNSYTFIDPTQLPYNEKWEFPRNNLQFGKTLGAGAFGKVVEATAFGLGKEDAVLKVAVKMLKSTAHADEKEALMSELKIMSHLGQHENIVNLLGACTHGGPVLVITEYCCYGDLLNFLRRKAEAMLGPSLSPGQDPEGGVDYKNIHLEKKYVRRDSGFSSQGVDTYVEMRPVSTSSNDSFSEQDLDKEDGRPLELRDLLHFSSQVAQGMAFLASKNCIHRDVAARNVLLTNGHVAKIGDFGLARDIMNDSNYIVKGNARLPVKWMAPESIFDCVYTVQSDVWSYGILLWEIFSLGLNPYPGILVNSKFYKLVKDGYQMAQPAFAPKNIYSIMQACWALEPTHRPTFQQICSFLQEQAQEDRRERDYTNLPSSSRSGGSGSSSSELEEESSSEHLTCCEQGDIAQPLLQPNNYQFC
Where a name gives a salt, the structure may show the parent alone.
reported property: log10 IC50 (log10 of the value in nM)
The common logarithm of IC50 in nM is what is listed.

Some solved entries appear below for comparison.
Cc1nn(Cc2cccc(C3CC3)n2)c2cccc(NC(=O)c3cnc4cc(OCCN5CCN(C)CC5)ccn34)c12 [Example 47]    1.20
CNC(=O)c1cccc(Cn2ncc3c(NC(=O)c4cnc5cc(OCCOC)ccn45)cccc32)c1 [Example 95]    1.50
CN1CCN(CCOc2ccn3c(C(=O)Nc4cccc5c4cnn5Cc4cccc(C#N)c4)cnc3c2)CC1 [Example 99]    0.75
Cc1nn(Cc2cccc(C3CC3)n2)c2ccc(F)c(NC(=O)c3cnc4cc(OCCN5CCN(C)[C@@H](C)C5)ccn34)c12 [Example 43]    1.37
COCCOc1ccn2c(C(=O)Nc3c(Cl)cc(Cl)c4c3cnn4Cc3ccccc3)cnc2c1 [Example 136]    1.32

## Task Look up log10 IC50 with cFMS (Homo sapiens) for this molecule: O=C(Nc1cccc2c1cnn2Cc1ccccc1)c1cnc2ccc(C(O)CO)cn12 (stereo not shown) [Example 158]
## Result 2.73

## Task Query the reported log10 IC50 for cFMS (Homo sapiens); item: Cc1cccc(Cn2nc(C)c3c(NC(=O)c4cnc5cc(C6CCNCC6)ccn45)cccc32)n1 [Example 52, tri-hydrochloride]
## Result 2.03

----------
target: PDGFR beta (Homo sapiens); construct: endogenous in cells; host or cells: HS27 human fibroblast cell line; experiment: Phospho PDGFR Cell Assay, sandwich ELISA (Example A); type: cell-based; details: averaged IC50, PDGFR beta phosphorylation in HS27 human fibroblast cell line, PDGF-BB stimulation 5 minutes
Counter-ions that a name gives are not always drawn.
reported property: pIC50
Interpret pIC50 as the negative base-10 log of the concentration measured in mol/L.

# example entries with known answers
Cc1cccc(Cn2nc(C)c3c(NC(=O)c4cnc5cc(N6CCCC6)ccn45)cccc32)n1 [Example 54, dihydrochloride]    6.54
Cc1nn(Cc2cccc(C(C)C)n2)c2cccc(NC(=O)c3cnc4cc(OCCN5CCN(C)[C@H](C)C5)ccn34)c12    8.23
O=C(Nc1cccc2c1cnn2Cc1ccccc1)c1cnc2cc(OCC(O)CO)ccn12 (stereo not shown)    7.65
Cc1cccc(Cn2nc(C)c3c(NC(=O)c4cnc5cc(C6=CCNCC6)ccn45)cccc32)n1 [Example 51, hydrochloride]    6.40
CC(C)N1CCN(CCOc2ccn3c(C(=O)Nc4cccc5c4c(Cl)nn5Cc4cccc(C5CC5)n4)cnc3c2)CC1    6.91
C[C@H]1CN(CCOc2ccn3c(C(=O)Nc4cccc5c4c(Cl)nn5Cc4cccc(C5CC5)n4)cnc3c2)CCN1C    6.62

// below: pIC50 requested for another compound
## Task Item under review: Cc1cccc(Cn2nc(C)c3c(NC(=O)c4cnc5cc(-c6ccnn6C)ccn45)cccc32)n1 . Reported pIC50?
## Result 6.56

----------
molecules and their reported IC50
biological target: c-KIT (Homo sapiens); construct: M-07e cells (human acute megakaryoblastic leukemia cell line) were serum-starved for 4 hours; endogenous in cells; assay: c-KIT Cell-Based Assay (Example D); details: averaged IC50; phospho-c-KIT in M-07e cells stimulated with 150 ng/ml recombinant human SCF; read-out: cKIT Cell ELISA IC50
Sequence (P10721 26-976): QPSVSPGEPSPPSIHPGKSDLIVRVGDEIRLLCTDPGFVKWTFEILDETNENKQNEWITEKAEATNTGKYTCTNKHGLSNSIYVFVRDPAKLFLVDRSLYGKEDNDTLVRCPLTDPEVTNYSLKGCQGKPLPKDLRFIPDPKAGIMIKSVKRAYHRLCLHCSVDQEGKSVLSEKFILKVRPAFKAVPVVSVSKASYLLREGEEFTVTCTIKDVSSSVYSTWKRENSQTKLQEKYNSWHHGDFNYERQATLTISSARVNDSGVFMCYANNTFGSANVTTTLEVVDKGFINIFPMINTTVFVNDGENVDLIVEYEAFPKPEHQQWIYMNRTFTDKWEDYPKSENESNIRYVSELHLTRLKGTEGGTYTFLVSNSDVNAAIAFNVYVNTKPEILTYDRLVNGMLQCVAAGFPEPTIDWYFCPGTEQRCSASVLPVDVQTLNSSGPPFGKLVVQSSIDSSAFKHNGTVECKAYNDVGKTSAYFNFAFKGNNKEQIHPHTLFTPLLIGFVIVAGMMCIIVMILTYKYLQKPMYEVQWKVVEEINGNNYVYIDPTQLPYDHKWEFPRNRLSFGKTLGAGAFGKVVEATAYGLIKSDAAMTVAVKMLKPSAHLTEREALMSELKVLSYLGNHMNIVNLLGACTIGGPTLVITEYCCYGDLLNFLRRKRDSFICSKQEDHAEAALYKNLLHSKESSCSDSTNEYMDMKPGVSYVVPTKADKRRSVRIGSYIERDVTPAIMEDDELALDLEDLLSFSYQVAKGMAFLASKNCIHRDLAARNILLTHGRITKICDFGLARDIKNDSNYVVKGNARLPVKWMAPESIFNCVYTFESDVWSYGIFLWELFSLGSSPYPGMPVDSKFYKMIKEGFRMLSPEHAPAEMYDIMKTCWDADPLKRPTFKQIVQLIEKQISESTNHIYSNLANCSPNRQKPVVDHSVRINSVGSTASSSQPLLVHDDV
Write the value in nM as a bare number.

Cc1nn(Cc2ccc(C(C)C)cn2)c2cccc(NC(=O)c3cnc4cc(OCCN5CCN(C)[C@@H](C)C5)ccn34)c12    188
Cc1nn(Cc2csc(C(C)C)n2)c2cccc(NC(=O)c3cnc4cc(OCCN5CCN(C)[C@@H](C)C5)ccn34)c12    65.3
COCCOc1ccn2c(C(=O)Nc3cccc4c3cnn4CCc3ccccc3)cnc2c1    37.3

Now, please, on to the next molecule.
## Task Item under review: Cc1nn(Cc2cccc(C(C)C)n2)c2cccc(NC(=O)c3cnc4cc(OCCN5CCOCC5)ccn34)c12 . Reported IC50?
## Result 53.3

----------
Biological target: PDGFR beta (Homo sapiens, UniProt P09619)
Construct: endogenous in cells; host or cells: HS27 human fibroblast cell line
Sequence (P09619 33-1106): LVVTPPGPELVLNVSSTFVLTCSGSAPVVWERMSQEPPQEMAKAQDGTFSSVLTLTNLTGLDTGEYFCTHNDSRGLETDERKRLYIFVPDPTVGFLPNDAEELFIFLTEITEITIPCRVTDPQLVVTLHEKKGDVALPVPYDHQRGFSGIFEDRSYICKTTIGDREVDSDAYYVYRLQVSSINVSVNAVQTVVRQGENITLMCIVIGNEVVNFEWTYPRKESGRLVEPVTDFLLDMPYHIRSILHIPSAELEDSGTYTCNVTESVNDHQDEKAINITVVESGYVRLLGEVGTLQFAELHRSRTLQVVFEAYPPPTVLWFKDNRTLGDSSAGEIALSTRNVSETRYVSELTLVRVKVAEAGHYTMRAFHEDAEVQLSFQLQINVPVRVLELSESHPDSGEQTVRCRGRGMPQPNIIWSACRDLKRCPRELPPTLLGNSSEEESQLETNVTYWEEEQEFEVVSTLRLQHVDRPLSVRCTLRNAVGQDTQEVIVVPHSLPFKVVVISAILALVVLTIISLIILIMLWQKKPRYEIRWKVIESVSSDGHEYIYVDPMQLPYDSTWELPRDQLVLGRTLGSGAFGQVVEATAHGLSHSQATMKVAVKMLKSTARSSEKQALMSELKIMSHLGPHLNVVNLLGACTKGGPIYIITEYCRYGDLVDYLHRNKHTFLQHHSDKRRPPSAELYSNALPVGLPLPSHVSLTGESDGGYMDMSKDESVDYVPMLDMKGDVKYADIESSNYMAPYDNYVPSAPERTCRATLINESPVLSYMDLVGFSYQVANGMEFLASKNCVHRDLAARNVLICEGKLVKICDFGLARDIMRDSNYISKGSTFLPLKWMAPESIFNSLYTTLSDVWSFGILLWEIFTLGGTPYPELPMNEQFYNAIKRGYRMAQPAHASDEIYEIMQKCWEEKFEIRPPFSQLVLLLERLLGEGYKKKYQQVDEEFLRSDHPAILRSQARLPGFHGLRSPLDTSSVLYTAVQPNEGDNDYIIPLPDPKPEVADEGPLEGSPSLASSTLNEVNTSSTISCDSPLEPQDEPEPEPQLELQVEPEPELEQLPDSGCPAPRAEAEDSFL
Test: Phospho PDGFR LICOR Cell Assay (Example B)
Type: cell-based
Conditions: averaged IC50; PDGFR beta phosphorylation in HS27 human fibroblast cell line, PDGF-BB stimulation 10 minutes, normalized to total ERK
Procedure: Compounds were screened for inhibition of PDGFR beta phosphorylation in the HS27 human fibroblast cell line. Cells were seeded into a 96 well tissue culture plate, then incubated overnight in a 37° C./5% CO2 incubator. The following day, cells were treated for one hour with test compound dilutions. […] Cells were then washed with PBS and analyzed for fluorescence at both wavelengths using the Odyssey Infrared Imaging System (LI-COR Biosciences). […]
Counter-ions that a name gives are not always drawn.
# label = true (1) if IC50 < 0.1 µM else false (0)

Worked set:
COCCOc1ccn2c(C(=O)Nc3cccc4c3cnn4Cc3cccc(O)c3)cnc2c1    false (0)
Cc1ccc(Cn2nc(C)c3c(NC(=O)c4cnc5ccccn45)cccc32)cn1    false (0)
COCCOc1ccn2c(C(=O)Nc3cccc4c3cnn4CC3CC3)cnc2c1    false (0)
CN1CCN(CCOc2ccn3c(C(=O)Nc4cccc5c4cnn5CCc4ccccn4)cnc3c2)CC1    false (0)

## Task Confirm or reject: IC50 of COCCOc1ccn2c(C(=O)Nc3c(Cl)ccc4c3cnn4Cc3ccccc3)cnc2c1 lies strictly below 0.1 µM
## Result true (1)

## Task Just wondering, is IC50 of COCCOc1ccn2c(C(=O)Nc3cccc4c3cnn4Cc3cccc(C)c3)cnc2c1 below 0.1 µM?
## Result true (1)

## Task For this molecule, is IC50 lower than 0.1 µM? Cc1cccc(Cn2nc(C)c3c(NC(=O)c4cnc5cc(OCCN6CCN(C)CC6)ccn45)cccc32)n1
## Result false (0)

## Task Consider the molecule Cc1cccc(Cn2nc(C)c3c(NC(=O)c4cnc5cc(-c6ccc(=O)n(C)c6)ccn45)cccc32)n1 . Is its IC50 strictly less than 0.1 µM?
## Result false (0)

## Task Quick check: IC50 of COCCOc1ccn2c(C(=O)Nc3cccc4c3cnn4Cc3cccc(C)n3)cnc2c1 under 0.1 µM?
## Result true (1)

## Task Is IC50 strictly under 0.1 µM for the entry Cc1cccc(Cn2ncc3c(NC(=O)c4cnc5cc(OCCN6CCN(C)CC6)ccn45)ccc(Cl)c32)n1 [Example 101, trihydrochloride] ?
## Result true (1)

## Task Does CC(=O)c1ccn2c(C(=O)Nc3cccc4c3cnn4Cc3ccccc3)cnc2c1 have IC50 strictly under 0.1 µM?
## Result false (0)

## Task Bench note: check whether COCCOc1ccn2c(C(=O)Nc3cccc4c3cnn4Cc3cccc(C(=O)OC)c3)cnc2c1 shows IC50 below 0.1 µM
## Result true (1)

## Task Consider the molecule Cc1cccc(Cn2ncc3c(NC(=O)c4cnc5cc(OCCN6CCN(C)CC6)ccn45)cccc32)n1 . Is its IC50 strictly less than 0.1 µM?
## Result true (1)

## Task API: query returns whether the molecule falls strictly under 0.1 µM in IC50. Query: COCCOc1ccn2c(C(=O)Nc3cccc4c3cnn4Cc3ccccn3)cnc2c1
## Result true (1)

## Task For this molecule, is IC50 lower than 0.1 µM? Cc1ccc(Cn2nc(C)c3c(NC(=O)c4cnc5cc(OCCN6CCN(C)CC6)ccn45)cccc32)cn1
## Result false (0)

## Task Report whether reported IC50 is lower than 0.1 µM (strictly) for Cc1nn(Cc2cccc(C(F)(F)F)n2)c2cccc(NC(=O)c3cnc4cc(OCCN5CCN(C(C)C)CC5)ccn34)c12
## Result false (0)

----------
target: cFMS (Homo sapiens); construct: THP-1 cells (human acute monocytic leukemia cell line) were serum-starved for 4 hours; endogenous in cells; assay: cFMS Cell-Based Assay (Example C); conditions: averaged IC50; phospho-cFMS in THP-1 cells stimulated with 250 ng/mL recombinant human MCSF; read-out: cFMS Cell ELISA IC50
Structures can show the parent of a compound that is named as a salt.
reported property: pIC50
As a rule, pIC50 stands for the negative log10 of the concentration, concentration in M.

Use these answered entries as a reference point.
COCCOc1ccn2c(C(=O)Nc3cccc4c3c(C)nn4CC3CCOCC3)cnc2c1    6.27
CC(=O)c1ccn2c(C(=O)Nc3cccc4c3cnn4Cc3ccccc3)cnc2c1    7.24
Cc1nn(Cc2cccc(C(C)(C)C)n2)c2cccc(NC(=O)c3cnc4cc(OCCN5CCN(C)[C@@H](C)C5)ccn34)c12    6.99
COCCOc1ccn2c(C(=O)Nc3cccc4c3cnn4Cc3ccc(C(F)(F)F)cc3)cnc2c1    7.46
COCCOc1ccn2c(C(=O)Nc3cccc4c3cnn4CC3CCCN(C(C)=O)C3)cnc2c1 (centres unmarked)    6.87
Cc1cccc(Cn2ncc3c(NC(=O)c4cnc5cc(OCCN6CCN(C)CC6)ccn45)ccc(Cl)c32)n1 [Example 101, trihydrochloride]    7.36
COCCOc1ccn2c(C(=O)Nc3cccc4c3cnn4Cc3cccnc3)cnc2c1    7.68
Cc1nn(Cc2cccc(C(C)C)n2)c2cccc(NC(=O)c3cnc4cc(OCCN5CCN(C(C)C)CC5)ccn34)c12    7.39

## Task Name the recorded pIC50 for COCCOc1ccn2c(C(=O)Nc3cccc4c3cnn4CC3CCCN(C(=O)OC(C)(C)C)C3)cnc2c1 (centres unmarked) .
## Result 6.73

## Task Entry under review: Cc1cccc(Cn2nc(C)c3c(NC(=O)c4cnc5cc(OCCN6CCN(C)[C@@H](C)C6)ccn45)cccc32)n1 . Reported pIC50?
## Result 7.71

## Task What does the record list as pIC50 for Cc1nn(Cc2cccc(C(C)C)n2)c2cccc(NC(=O)c3cnc4cc(OCCN5CC6(CNC6)C5)ccn34)c12 [Example 3, trihydrochloride] ?
## Result 7.15
